# protocol.text: Cytotoxicity against mouse RAW264.7 cells assessed as inhibition of cell viability at 50 uM incubated for 48 hrs at 37 degC by MTT assay relative to control
# Format: cell-based
# conditions: read-out: INH
Quick rule for you: cytotoxicity at 48 h, 50 µM under 20% gets True, anything else gets False.

- entry.smiles: "CCN1CCN(CCCNc2ccc(Nc3c(C(=O)NN)cnc4ccc(C(F)(F)F)cc34)cc2)CC1"
  class: "True"
- entry.smiles: "CCOC(=O)c1cnc2ccc(OC)cc2c1Nc1ccc(OCCCN2CCN(CC)CC2)cc1"
  class: "False"
- entry.smiles: "O=C(O)c1cnc2ccc(C(F)(F)F)cc2c1Nc1ccc(NCCCN2CCOCC2)cc1"
  class: "True"
- entry.smiles: "COc1ccc2ncc(C(=O)NN)c(Nc3ccc(NCCCN4CCOCC4)cc3)c2c1"
  class: "True"
- entry.smiles: "CCN1CCN(CCCOc2ccc(Nc3c(C(=O)O)cnc4ccc(OC)cc34)cc2)CC1"
  class: "True"
- entry.smiles: "COc1ccc2ncc(C(=O)O)c(Nc3ccc(NCCCN4CCOCC4)cc3)c2c1"
  class: "True"
- entry.smiles: "CCN1CCN(CCCOc2ccc(Nc3c(C(=O)NN)cnc4ccc(F)cc34)cc2)CC1"
  class: "True"
- entry.smiles: "CCOC(=O)c1cnc2ccc(F)cc2c1Nc1ccc(OCCCN2CCN(CC)CC2)cc1"
  class: "False"
- entry.smiles: "CCN1CCN(CCCOc2ccc(Nc3c(C(=O)O)cnc4ccccc34)cc2)CC1"
  class: "True"
- entry.smiles: "CCOC(=O)c1cnc2ccccc2c1Nc1ccc(OCCCN2CCN(CC)CC2)cc1"
  class: "False"
- entry.smiles: "CCOC(=O)c1cnc2ccc(C(F)(F)F)cc2c1Nc1ccc(OCCCN2CCN(CC)CC2)cc1"
  class: "False"
- entry.smiles: "CCN1CCN(CCCNc2ccc(Nc3c(C(=O)NN)cnc4ccc(F)cc34)cc2)CC1"
  class: "True"
- entry.smiles: "CCOC(=O)c1cnc2ccc(F)cc2c1Nc1ccc(OCCCN2CCOCC2)cc1"
  class: "False"
- entry.smiles: "CCN1CCN(CCCNc2ccc(Nc3c(C(=O)NN)cnc4ccccc34)cc2)CC1"
  class: "True"
- entry.smiles: "NNC(=O)c1cnc2ccc(F)cc2c1Nc1ccc(OCCCN2CCOCC2)cc1"
  class: "True"
